- experimental system: Recombinant full length HIV-1 Reverse Transcriptase (HIVrt) (Human immunodeficiency virus type 1 group M subtype B (isolate HXB2) (HIV-1))
- assay: Inhibition of HIV reverse transcriptase (HIVrt RNA-dependent DNA polymerization assay)
- applied conditions: 1 nM HIVrt, c5′UTR RNA template, 30° C., 40 min; phosphono diphosphates tested
measurement kind: IC50

Recorded IC50 (molecule "Nc1ncnc2c(C[C@H](CF)OCP(=O)(O)OP(=O)(O)OP(=O)(O)O)cnn12" ): < 50 nM

Recorded IC50 (molecule CC(Cc1ccc2c(=O)[nH]cnn12)OCP(=O)(O)OP(=O)(O)OP(=O)(O)O (centres unmarked) ): ≥ 250 nM

Recorded IC50 (molecule "Nc1ncnn2c(COCCP(=O)(O)OP(=O)(O)OP(=O)(O)O)ccc12" ): ≥ 250 nM

Recorded IC50 (molecule "C[C@H](Cc1cnc2c(N)ncnn12)OCP(=O)(O)OP(=O)(O)OP(=O)(O)O" ): < 50 nM

Recorded IC50 (molecule CC(Cc1ccc2c(=O)[nH]c(N)nn12)OCP(=O)(O)OP(=O)(O)OP(=O)(O)O (centres unmarked) ): < 50 nM

Recorded IC50 (molecule "Nc1ncnn2c(C[C@@H](CF)OCP(=O)(O)OP(=O)(O)OP(=O)(O)O)cnc12" ): 50 to 250 nM

Recorded IC50 (molecule "Nc1ncnn2c(CCOCP(=O)(O)OP(=O)(O)OP(=O)(O)O)ccc12" ): < 50 nM

Recorded IC50 (molecule "CC(C)(Cc1cnn2c(=O)[nH]c(N)nc12)OCP(=O)(O)OP(=O)(O)OP(=O)(O)O" ): ≥ 250 nM

Recorded IC50 (molecule "C[C@@H](Cc1cnn2c(N)ncnc12)OCP(=O)(O)OP(=O)(O)OP(=O)(O)O" ): < 50 nM

Recorded IC50 (molecule "Nc1ncnn2c(C[C@H](CF)OCP(=O)(O)OP(=O)(O)OP(=O)(O)O)cnc12" ): 50 to 250 nM

Recorded IC50 (molecule CC(Cc1ccc2c(N)nc(F)nn12)OCP(=O)(O)OP(=O)(O)OP(=O)(O)O (centres unmarked) ): < 50 nM

Recorded IC50 (molecule "C[C@H](Cc1ncc2c(N)ncnn12)OCP(=O)(O)OP(=O)(O)OP(=O)(O)O" ): ≥ 250 nM

Recorded IC50 (molecule "C[C@H](Cc1nnc2c(N)ncnn12)OCP(=O)(O)OP(=O)(O)OP(=O)(O)O" ): ≥ 250 nM

Recorded IC50 (molecule CC(Cc1cnc2c(=O)[nH]c(N)nn12)OCP(=O)(O)OP(=O)(O)OP(=O)(O)O (centres unmarked) ): 50 to 250 nM

Recorded IC50 (molecule "Nc1ncnc2c(C[C@H](OCP(=O)(O)OP(=O)(O)OP(=O)(O)O)C(F)F)cnn12" ): ≥ 250 nM

Recorded IC50 (molecule "C[C@H](Cc1cnn2c(N)ncnc12)OCP(=O)(O)OP(=O)(O)OP(=O)(O)O" ): 50 to 250 nM

Recorded IC50 (molecule "Nc1ncnc2c(C[C@@H](CF)OCP(=O)(O)OP(=O)(O)OP(=O)(O)O)cnn12" ): < 50 nM
